- assay_explanation: Selectivity index, ratio of CC50 for African green monkey Vero cells to MIC for Antitubercular activity against Mycobacterium tuberculosis H37Rv
- Format: toxicity
- condition_label: read-out: Selectivity Index
Each entry below carries its reported selectivity ratio.

[
  {
    "sample_smiles": "COC(=O)c1cc(-c2cccc(NC(=O)c3ccc(/C=C/C(=O)c4ccc(Cl)cc4Cl)cc3)c2)on1",
    "selectivity ratio": "> 80"
  },
  {
    "sample_smiles": "COC(=O)c1cc(-c2cccc(NC(=O)c3ccc(/C=C/C(=O)c4cccc(C(F)(F)F)c4)cc3)c2)on1",
    "selectivity ratio": "> 20"
  },
  {
    "sample_smiles": "COC(=O)c1cc(-c2cccc(NC(=O)c3ccc(/C=C/C(=O)c4ccc(C)cc4)cc3)c2)on1",
    "selectivity ratio": "> 160"
  },
  {
    "sample_smiles": "COC(=O)c1cc(-c2cccc(NC(=O)c3ccc(OCc4ccc(Cl)cc4)cc3)c2)on1",
    "selectivity ratio": "> 80"
  }
]

###

- assay_explanation: Cytotoxicity against African green monkey vero cells assessed as reduction in cell viability measured after 72 hrs by MTT assay
- Type: cell-based
- condition_label: chlorocebus sabaeus
Known CC50 at 72 h of a selection of compounds

[
  {
    "sample_smiles": "CCCOc1ccc(C(=O)/C=C/c2ccc(C(=O)O)cc2)cc1",
    "CC50 at 72 h": "< 10 µg/mL"
  },
  {
    "sample_smiles": "COC(=O)c1cc(-c2cccc(NC(=O)c3ccc(/C=C/C(=O)c4ccc(OC)cc4OC)cc3)c2)on1",
    "CC50 at 72 h": "> 50 µg/mL"
  },
  {
    "sample_smiles": "COC(=O)c1cc(-c2cccc(NC(=O)c3ccc(/C=C/C(=O)c4ccc(C)c(F)c4)cc3)c2)on1",
    "CC50 at 72 h": "> 50 µg/mL"
  }
]

###

Overview of reported selectivity ratio across a group of molecules:
- assay_explanation: Selectivity index, ratio of CC50 for African green monkey Vero cells to MIC for Antitubercular activity against Mycobacterium tuberculosis H37Rv
- Type: toxicity
- condition_label: read-out: Selectivity Index
measured_property: selectivity ratio

[
  {
    "sample_smiles": "COC(=O)c1cc(-c2cccc(NC(=O)c3ccc(/C=C/C(=O)c4ccc(Cl)cc4)cc3)c2)on1",
    "measured_property": "selectivity ratio",
    "endpoint_value": "> 416"
  },
  {
    "sample_smiles": "O=C(O)c1ccc(/C=C/C(=O)c2ccc(Cl)cc2)cc1",
    "measured_property": "selectivity ratio",
    "endpoint_value": "< 10"
  },
  {
    "sample_smiles": "COC(=O)c1cc(-c2cccc(NC(=O)c3ccc(/C=C/C(=O)c4ccc(OC)c([N+](=O)[O-])c4)cc3)c2)on1",
    "measured_property": "selectivity ratio",
    "endpoint_value": "> 40"
  },
  {
    "sample_smiles": "COC(=O)c1cc(-c2cccc(NC(=O)c3ccc(/C=C/C(=O)c4ccc(C)c(F)c4)cc3)c2)on1",
    "measured_property": "selectivity ratio",
    "endpoint_value": "> 25"
  },
  {
    "sample_smiles": "COC(=O)c1cc(-c2cccc(NC(=O)c3ccc(/C=C/C(=O)c4ccc(Br)cc4)cc3)c2)on1",
    "measured_property": "selectivity ratio",
    "endpoint_value": "> 2"
  },
  {
    "sample_smiles": "COC(=O)c1cc(-c2cccc(NC(=O)c3ccc(/C=C/C(=O)c4cc(F)ccc4F)cc3)c2)on1",
    "measured_property": "selectivity ratio",
    "endpoint_value": "> 40"
  },
  {
    "sample_smiles": "COC(=O)c1cc(-c2cccc(NC(=O)c3ccc(/C=C/C(=O)c4ccc(F)cc4F)cc3)c2)on1",
    "measured_property": "selectivity ratio",
    "endpoint_value": "> 333"
  },
  {
    "sample_smiles": "COC(=O)c1cc(-c2ccc(NC(=O)c3ccc(/C=C/C(=O)c4ccc(Cl)cc4)cc3)cc2)on1",
    "measured_property": "selectivity ratio",
    "endpoint_value": "> 1330"
  },
  {
    "sample_smiles": "COC(=O)c1cc(-c2cccc(NC(=O)c3ccc(/C=C/C(=O)c4ccc(F)cc4)cc3)c2)on1",
    "measured_property": "selectivity ratio",
    "endpoint_value": "> 5"
  },
  {
    "sample_smiles": "COC(=O)c1cc(-c2cccc(NC(=O)c3ccc(/C=C/C(=O)c4ccccc4OC)cc3)c2)on1",
    "measured_property": "selectivity ratio",
    "endpoint_value": "> 40"
  },
  {
    "sample_smiles": "CC(C)Cc1ccc(C(=O)/C=C/c2ccc(C(=O)O)cc2)cc1",
    "measured_property": "selectivity ratio",
    "endpoint_value": "< 10"
  },
  {
    "sample_smiles": "COC(=O)c1cc(-c2cccc(NC(=O)c3ccc(/C=C/C(=O)c4ccccc4Cl)cc3)c2)on1",
    "measured_property": "selectivity ratio",
    "endpoint_value": "> 100"
  },
  {
    "sample_smiles": "COC(=O)c1cc(-c2cccc(NC(=O)c3ccc(/C=C/C(=O)c4ccc5c(c4)OCO5)cc3)c2)on1",
    "measured_property": "selectivity ratio",
    "endpoint_value": "> 20"
  },
  {
    "sample_smiles": "COC(=O)c1cc(-c2cccc(NC(=O)c3ccc(/C=C/C(=O)c4ccc(OC)c(OC)c4)cc3)c2)on1",
    "measured_property": "selectivity ratio",
    "endpoint_value": "> 50"
  },
  {
    "sample_smiles": "COC(=O)c1cc(-c2cccc(NC(=O)c3ccc(/C=C/C(=O)c4ccc(C)c([N+](=O)[O-])c4)cc3)c2)on1",
    "measured_property": "selectivity ratio",
    "endpoint_value": "> 20"
  },
  {
    "sample_smiles": "COC(=O)c1cc(-c2cccc(NC(=O)c3ccc(/C=C/C(=O)c4cccc(F)c4)cc3)c2)on1",
    "measured_property": "selectivity ratio",
    "endpoint_value": "> 20"
  },
  {
    "sample_smiles": "COC(=O)c1cc(-c2cccc(NC(=O)c3ccc(/C=C/C(=O)c4ccccc4C)cc3)c2)on1",
    "measured_property": "selectivity ratio",
    "endpoint_value": "> 100"
  }
]

###

- assay_explanation: Cytotoxicity against African green monkey vero cells assessed as reduction in cell viability measured after 72 hrs by MTT assay
- Type: cell-based
- condition_label: chlorocebus sabaeus
measured_property: CC50 at 72 h

[
  {
    "compound": "COC(=O)c1cc(-c2cccc(NC(=O)c3ccc(/C=C/C(=O)c4ccccc4OC)cc3)c2)on1",
    "endpoint_value": "> 40 µg/mL"
  },
  {
    "compound": "COC(=O)c1cc(-c2cccc(NC(=O)c3ccc(/C=C/C(=O)c4ccccc4Cl)cc3)c2)on1",
    "endpoint_value": "> 25 µg/mL"
  },
  {
    "compound": "COC(=O)c1cc(-c2cccc(NC(=O)c3ccc(/C=C/C(=O)c4ccccc4C)cc3)c2)on1",
    "endpoint_value": "> 25 µg/mL"
  },
  {
    "compound": "COC(=O)c1cc(-c2cccc(NC(=O)c3ccc(/C=C/C(=O)c4ccc(CC(C)C)cc4)cc3)c2)on1",
    "endpoint_value": "> 10 µg/mL"
  },
  {
    "compound": "O=C(O)c1ccc(/C=C/C(=O)c2ccc(Cl)cc2)cc1",
    "endpoint_value": "< 10 µg/mL"
  },
  {
    "compound": "COC(=O)c1cc(-c2cccc(NC(=O)c3ccc(/C=C/C(=O)c4ccc(C)cc4)cc3)c2)on1",
    "endpoint_value": "> 80 µg/mL"
  },
  {
    "compound": "COC(=O)c1cc(-c2cccc(NC(=O)c3ccc(/C=C/C(=O)c4ccccc4)cc3)c2)on1",
    "endpoint_value": "> 50 µg/mL"
  },
  {
    "compound": "COC(=O)c1cc(-c2cccc(NC(=O)c3ccc(OCc4ccc(Cl)cc4)cc3)c2)on1",
    "endpoint_value": "> 80 µg/mL"
  },
  {
    "compound": "COC(=O)c1cc(-c2cccc(NC(=O)c3ccc(/C=C/C(=O)c4cccc(F)c4)cc3)c2)on1",
    "endpoint_value": "> 40 µg/mL"
  },
  {
    "compound": "COC(=O)c1cc(-c2cccc(NC(=O)c3ccc(C4OC4C(=O)c4ccc(Cl)cc4)cc3)c2)on1 (stereo not drawn)",
    "endpoint_value": "> 20 µg/mL"
  },
  {
    "compound": "COC(=O)c1cc(-c2cccc(NC(=O)c3ccc(/C=C/C(=O)c4cccc([N+](=O)[O-])c4)cc3)c2)on1",
    "endpoint_value": "> 40 µg/mL"
  },
  {
    "compound": "CC(C)Cc1ccc(C(=O)/C=C/c2ccc(C(=O)O)cc2)cc1",
    "endpoint_value": "< 10 µg/mL"
  },
  {
    "compound": "COC(=O)c1cc(-c2cccc(NC(=O)c3ccc(/C=C/C(=O)c4cccc(OC)c4)cc3)c2)on1",
    "endpoint_value": "> 100 µg/mL"
  },
  {
    "compound": "CCOc1ccc(C(=O)/C=C/c2ccc(C(=O)Nc3cccc(-c4cc(C(=O)OC)no4)c3)cc2)cc1",
    "endpoint_value": "> 40 µg/mL"
  },
  {
    "compound": "COC(=O)c1cc(-c2cccc(NC(=O)c3ccc(/C=C/C(=O)c4ccc5c(c4)OCO5)cc3)c2)on1",
    "endpoint_value": "> 40 µg/mL"
  },
  {
    "compound": "COC(=O)c1cc(-c2cccc(NC(=O)c3ccc(/C=C/C(=O)c4cccc(Br)c4)cc3)c2)on1",
    "endpoint_value": "> 100 µg/mL"
  },
  {
    "compound": "COC(=O)c1cc(-c2cccc(NC(=O)c3ccc(/C=C/C(=O)c4ccc(N5CCOCC5)cc4)cc3)c2)on1",
    "endpoint_value": "> 20 µg/mL"
  },
  {
    "compound": "COC(=O)c1cc(-c2cccc(NC(=O)c3ccc(/C=C/C(=O)c4ccc([N+](=O)[O-])cc4)cc3)c2)on1",
    "endpoint_value": "> 20 µg/mL"
  }
]
